These entries and their values trace back to patent US9328099B2.

// reported IC50 per item
# tested.target: JAK2 (Homo sapiens (Human), UniProt O60674)
# Sequence (O60674 849-1124): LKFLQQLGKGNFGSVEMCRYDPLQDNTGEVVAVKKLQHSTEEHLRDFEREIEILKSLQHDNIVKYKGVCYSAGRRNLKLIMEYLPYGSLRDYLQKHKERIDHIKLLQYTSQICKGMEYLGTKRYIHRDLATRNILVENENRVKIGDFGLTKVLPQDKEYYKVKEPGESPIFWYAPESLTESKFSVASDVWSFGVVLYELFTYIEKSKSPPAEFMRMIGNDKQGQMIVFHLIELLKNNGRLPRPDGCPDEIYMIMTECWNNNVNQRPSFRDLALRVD
# test.summary: Jak Biochemical HTRF Assay, JAK2
# test.context: HTRF biochemical assay, GST-tagged catalytic domain; top concentration tested […]
readout: IC50 (nM)

>>> print(df.to_string())
                                    compound  readout  result_operator  result_value
 0  N#CCC1(n2cc(C(N)=O)c(Nc3ccc(F)cc3)n2)CCC(N2CC(F)C2)CC1 (stereo not shown) [Example 40-100]     IC50                =           216
 1  N#CCC1(n2cc(C(N)=O)c(Nc3ccccc3)n2)CCN(Cc2cccc(F)c2)CC1 [Example 21-18]     IC50                =            73
 2  N#CCC1(n2cc(C(N)=O)c(Nc3ccnc(F)c3)n2)CCN(Cc2ccc(O)cc2)CC1 [Example 22-60]     IC50                =             6
 3  N#CCC1(n2cc(C(N)=O)c(Nc3ccnc(F)c3)n2)CCN(C(=O)C2CC(F)(F)C2)CC1 [Example 34-53]     IC50                =            15
 4  Cc1ccc(NC(=O)N2CC(CC#N)(n3cc(C(N)=O)c(Nc4ccc(S(C)(=O)=O)cc4)n3)C2)cc1 [Example 38-41]     IC50                =           175
 5  N#CCC1(n2cc(C(N)=O)c(Nc3ccccc3)n2)CCN(C(=O)OC2CCOCC2)CC1 [Example 30-37]     IC50                =           103
 6  CC1(COC(=O)N2CCC(CC#N)(n3cc(C(N)=O)c(Nc4ccc(F)cc4)n3)CC2)CC1 [Example 30-8]     IC50                =            72
 7  N#CCC1(n2cc(C(N)=O)c(Nc3ccnc(F)c3)n2)CCC(NCC(F)F)CC1 (stereo not shown) [Example 40-106]     IC50                =            31
 8  COc1ccc(C(=O)N2CCC(CC#N)(n3cc(C(N)=O)c(Nc4ccccc4)n3)CC2)cc1OC [Example 34-27]     IC50                =           448
 9  N#CCC1(n2cc(C(N)=O)c(Nc3ccnc(F)c3)n2)CCC(N2CC(F)C2)CC1 (stereo not shown) [Example 40-82]     IC50                =           444
10  N#CCC1(n2cc(C(N)=O)c(Nc3ccc(S(=O)(=O)C(F)F)cc3)n2)CCC(N2CCC(F)(F)CC2)CC1 (stereo not shown) [Example 40-42]     IC50                =           775
11  CC(C)(C)OC(=O)N1CCC(CC#N)(n2cc(C(N)=O)c(Nc3cccc(-c4ccccc4F)c3)n2)CC1 [Example 15-10]     IC50                =           841
12  N#CCC1(n2cc(C(N)=O)c(Nc3ccccc3)n2)CCN(C(=O)OCc2ccccc2)CC1 [Example 27-4]     IC50                =            85
13  CC(C)(C)OC(=O)N1CCC(CC#N)(n2cc(C(N)=O)c(Nc3ccncn3)n2)CC1 [Example 13-1]     IC50                =           139
14  CC(=O)c1cccc(NC(=O)N2CC(CC#N)(n3cc(C(N)=O)c(Nc4ccccc4)n3)C2)c1 [Example 38-32]     IC50                =            86
15  N#CCC1(n2cc(C(N)=O)c(Nc3ccc(F)cc3)n2)CCN(c2cccc(C#N)n2)CC1 [Example 3-18]     IC50                =            89
16  N#CCC1(n2cc(C(N)=O)c(Nc3ccccc3)n2)CN(C(=O)OCCN2CCCC2=O)C1 [Example 30-64]     IC50                =          1480
17  N#CCC1(n2cc(C(N)=O)c(Nc3ccc(F)cc3)n2)CCC(N2CCC(F)(F)CC2)CC1 (stereo not shown) [Example 40-70]     IC50                =             9
18  N#CCC1(n2cc(C(N)=O)c(Nc3ccc(S(=O)(=O)C(F)F)cc3)n2)CCC(NCC(F)F)CC1 (stereo not shown) [Example 40-99]     IC50                >          1500
19  N#CCC1(n2cc(C(N)=O)c(Nc3ccccc3)n2)CCCCC1 [Example 2-15]     IC50                =            92
20  CCCc1ccc(CN2CCC(CC#N)(n3cc(C(N)=O)c(Nc4ccccc4)n3)CC2)cc1 [Example 21-22]     IC50                =           888
21  Cc1cncc(Nc2nn(C3(CC#N)CCN(C(=O)OC(C)(C)C)CC3)cc2C(N)=O)n1 [Example 13-8]     IC50                =           176
22  N#CCC1(n2cc(C(N)=O)c(Nc3ccc(F)cc3)n2)CCN(C(=O)OCC2CCOCC2)CC1 [Example 30-21]     IC50                =           145
23  N#CCC1(n2cc(C(N)=O)c(Nc3ccc(F)cc3)n2)CCS(=O)(=O)CC1 [Example 8]     IC50                =           813
24  COC1CC(CN2CCC(CC#N)(n3cc(C(N)=O)c(Nc4ccnc(F)c4)n3)CC2)C1 (stereo not shown) [Example 22-37]     IC50                >          1500
25  N#CCC1(n2cc(C(N)=O)c(Nc3ccnc(F)c3)n2)CCC(NCc2ccc(O)cc2)CC1 (stereo not shown) [Example 41-26]     IC50                =           759
26  N#CCC1(n2cc(C(N)=O)c(Nc3ccc(F)cc3)n2)CCC(Nc2ccc(Cl)cc2)CC1 (stereo not shown) [Example 40-53]     IC50                >          1500
27  CCC(=O)N1CC(CC#N)(n2cc(C(N)=O)c(Nc3ccccc3)n2)C1 [Example 34-36]     IC50                =           298
28  N#CCC1(n2cc(C(N)=O)c(Nc3ccccc3)n2)CCN(C(=O)OCc2cccnc2)CC1 [Example 30-39]     IC50                =            38
29  N#CCC1(n2cc(C(N)=O)c(Nc3ccnc(F)c3)n2)CCN(Cc2cccc3ccnn23)CC1 [Example 22-33]     IC50                =            81
30  CC1(C(=O)N2CCC(CC#N)(n3cc(C(N)=O)c(Nc4ccnc(F)c4)n3)CC2)CCC1 [Example 34-60]     IC50                =           115

====

# tested.target: JAK2 (Homo sapiens (Human))
# test.summary: Jak Biochemical HTRF Assay, JAK2
# test.context: HTRF biochemical assay, GST-tagged catalytic domain; top concentration tested […]
pIC50: −log10 of the molar value.
// reported pIC50 per item
readout: pIC50

>>> print(df.to_string())
                                    molecule  result_operator  result_value
 0  CN(c1ccccc1)C1CCC(CC#N)(n2cc(C(N)=O)c(Nc3ccnc(F)c3)n2)CC1 (stereo not shown) [Example 40-15]                =          8.70
 1  N#CCC1(n2cc(C(N)=O)c(Nc3ccccc3)n2)CCN(Cc2ccccc2Cl)CC1 [Example 21-6]                =          7.26
 2  N#CCC1(n2cc(C(N)=O)c(Nc3ccc(F)cc3)n2)CCC(NCC(F)F)CC1 (stereo not shown) [Example 40-77]                =          7.89
 3  N#CCC1(n2cc(C(N)=O)c(Nc3ccnc(F)c3)n2)CCC(NCc2ccncc2)CC1 (stereo not shown) [Example 41-13]                =          6.00
 4  COc1cc(N2CCC(CC#N)(n3cc(C(N)=O)c(Nc4ccc(F)cc4)n3)CC2)ccc1F [Example 3-11]                =          7.13
 5  Cn1cc(C(=O)N2CCC(CC#N)(n3cc(C(N)=O)c(Nc4ccnc(F)c4)n3)CC2)cn1 [Example 34-44]                =          7.20
 6  N#CCC1(n2cc(C(N)=O)c(Nc3ccnc(F)c3)n2)CCN(Cc2ccc3[nH]ccc3c2)CC1 [Example 22-20]                =          7.51
 7  N#CCC1(n2cc(C(N)=O)c(Nc3cccc(Cn4nnc5ccccc54)c3)n2)CCN(C(=O)OCC(F)(F)F)CC1 [Example 4-4]                =          7.64
 8  N#CCC1(n2cc(C(N)=O)c(Nc3ccc(F)cc3)n2)CCC(Nc2cccnc2)CC1 (stereo not shown) [Example 40-39]                =          6.12
 9  N#CCC1(n2cc(C(N)=O)c(Nc3ccc(F)cc3)n2)CCC(N2CCC(O)CC2)CC1 (stereo not shown) [Example 40-41]                <          5.83
10  Cc1noc(-c2ccc(Nc3nn(C4(CC#N)CCN(C(=O)OC(C)(C)C)CC4)cc3C(N)=O)cc2)n1 [Example 9-30]                =          8.30
11  CS(=O)(=O)N1CCC(CC#N)(n2cc(C(N)=O)c(Nc3ccccc3)n2)CC1 [Example 37-2]                =          8.52
12  N#CCC1(n2cc(C(N)=O)c(Nc3ccnc(F)c3)n2)CCC(NCC(F)F)CC1 (stereo not shown) [Example 40-87]                =          6.28
13  COc1cccc(S(=O)(=O)N2CCC(CC#N)(n3cc(C(N)=O)c(Nc4ccccc4)n3)CC2)c1 [Example 37-10]                =          8.52
14  CN(C)CC(=O)N1CCC(CC#N)(n2cc(C(N)=O)c(Nc3ccccc3)n2)CC1 [Example 34-5]                =          6.50
15  C[C@H](OC(=O)N1CCC(CC#N)(n2cc(C(N)=O)c(Nc3ccnc(F)c3)n2)CC1)C1CC1 [Example 30-77]                =          8.05
16  CC(C)(C)OC(=O)N1CCC(CC#N)(n2cc(C(N)=O)c(Nc3ccc(S(C)(=O)=O)cc3)n2)C1 (stereo not shown) [Example 2-16]                =          8.70
17  CC(C)(O)CC(=O)N1CCC(CC#N)(n2cc(C(N)=O)c(Nc3ccnc(F)c3)n2)CC1 [Example 34-50]                =          8.10
18  CC(C)(C)OC(=O)N1CCC(CC#N)(n2cc(C(N)=O)c(Nc3ccc(C(=O)C(F)(F)F)cc3)n2)CC1 [Example 9-11]                =          8.52
19  CCS(=O)(=O)N1CC(CC#N)(n2cc(C(N)=O)c(Nc3ccc(C(=O)N4CCS(=O)(=O)CC4)cc3)n2)C1 [Example 2-13]                =          7.42
20  CC(C)(C)OC(=O)N1CCC(CC#N)(n2cc(C(N)=O)c(Nc3cnccn3)n2)CC1 [Example 13-7]                =          6.68
21  CC(C)(C)OC(=O)N1CCC(CC#N)(n2cc(C(N)=O)c(Nc3ccnnc3)n2)CC1 [Example 12-6]                =          7.82
22  N#CCC1(n2cc(C(N)=O)c(Nc3ccccc3)n2)COC1 [Example 2-20]                =          6.62
23  CC(C)(C)CC(=O)N1CCC(CC#N)(n2cc(C(N)=O)c(Nc3ccnc(F)c3)n2)CC1 [Example 34-54]                =          7.36
24  N#CCC1(n2cc(C(N)=O)c(Nc3ccc(F)cc3)n2)CCN(c2ccccn2)CC1 [Example 25]                =          8.70
25  N#CCC1(n2cc(C(N)=O)c(Nc3ccnc(F)c3)n2)CCN(C(=O)OC2CCOCC2)CC1 [Example 30-17]                =          7.02
26  N#CCC1(n2cc(C(N)=O)c(Nc3ccnc(F)c3)n2)CCN(Cc2ccco2)CC1 [Example 22-19]                =          7.60
27  CCc1ccccc1NC(=O)N1CC(CC#N)(n2cc(C(N)=O)c(Nc3ccccc3)n2)C1 [Example 38-39]                =          6.52
28  N#CCC1(n2cc(C(N)=O)c(Nc3ccc(Cl)cc3)n2)CCC(N2CC(F)C2)CC1 (stereo not shown) [Example 39-1]                =          8.70
29  N#CCC1(n2cc(C(N)=O)c(Nc3ccc(F)cc3)n2)CCN(c2ccc(OC(F)F)cn2)CC1 [Example 3-19]                =          7.74
30  N#CCC1(n2cc(C(N)=O)c(Nc3ccccc3)n2)CCN(Cc2ccc(C(F)(F)F)cc2)CC1 [Example 21-19]                =          6.34
